MEASUREMENT_NOTES: Displacement of [3H]strychnine from glycine receptor in rat spinal cord synaptosomal membranes
Assay type: cell membranes, Membrane
pIC50: −log10 of the molar value.
Each entry gets n if its pIC50 stays under 6, and y if its pIC50 is 6 or above.

{"SMILES_REPR": "COc1c(O[C@@H]2O[C@H](C)[C@@H](O)[C@H](O)[C@H]2O)cc2c(c1OC)-c1ccc(SC)c(=O)cc1[C@@H](NC(C)=O)CC2", "CLASS_LABEL": "n"}

[in] # check: pIC50 of `O=C1C[C@@H]2OCC=C3CN4CC[C@]56c7ccccc7N1[C@H]5[C@H]2[C@H]3C[C@H]46` is greater than or equal to 6
[out] y

[in] Does pIC50 meet or surpass 6 for `COc1c(O[C@@H]2O[C@H](CI)[C@@H](O)[C@H](O)[C@H]2O)cc2c(c1OC)-c1ccc(SC)c(=O)cc1[C@@H](NC(C)=O)CC2` ?
[out] n

[in] Kindly determine if pIC50 recorded for `COc1c(O[C@@H]2O[C@H](CN=[N+]=[N-])[C@@H](O)[C@H](O)[C@H]2O)cc2c(c1OC)-c1ccc(SC)c(=O)cc1[C@@H](NC(C)=O)CC2` is above or exactly 6.
[out] n

[in] Kindly determine if pIC50 recorded for `NCC(=O)O` is above or exactly 6.
[out] n
